TARGET: UniProt P30518
Sequence (P30518 whole entry): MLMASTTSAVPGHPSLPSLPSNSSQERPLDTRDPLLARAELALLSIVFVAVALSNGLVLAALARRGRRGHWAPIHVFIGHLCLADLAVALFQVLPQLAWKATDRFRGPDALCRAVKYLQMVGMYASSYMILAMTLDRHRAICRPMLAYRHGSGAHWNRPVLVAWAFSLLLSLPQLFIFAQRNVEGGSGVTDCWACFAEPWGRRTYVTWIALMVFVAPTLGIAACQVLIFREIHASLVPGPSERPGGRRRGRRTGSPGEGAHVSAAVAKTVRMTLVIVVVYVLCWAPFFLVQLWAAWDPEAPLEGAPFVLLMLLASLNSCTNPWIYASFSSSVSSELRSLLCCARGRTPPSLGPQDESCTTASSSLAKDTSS
PROTOCOL DESCRIPTION: V2 binding assay (3H-AVP displacement, HEK-293 membranes)
Set-up: expressed in transfected cells; host or cells: HEK-293 (membranes)
CONDITION SET: 1.0 μM compound; read-out: V2@1.0, % Inh
QUANTITY NAME: inhibition at 1 µM (%)

Known results for molecules:
O=C(NC(c1ccccc1)c1ccccc1)N1CCC(n2c(=O)n(CCCN3CCCCC3)c3ccccc32)CC1 [Compound 97] : 0
O=c1n(Cc2ccc(-c3csnn3)cc2)c2ccccc2n1C1CCN(C(=S)NC(c2ccccc2)c2ccccc2)CC1 [Compound 167] : 8
O=c1n(CCCN2CCCCC2)c2ccccc2n1C1CCN(C(=S)Nc2cccnc2)CC1 [Compound 154] : 3
NCCCn1c(=O)n(C2CCN(C(=O)NC(c3ccccc3)c3ccccc3)CC2)c2ccccc21 [Compound 77] : 0
Cc1ccccc1NC(=O)N1CCC(n2c(=O)[nH]c3ccccc32)CC1 [Compound 48] : 0

I = O=c1[nH]c2ccccc2n1C1CCN(C(=S)NC2c3ccccc3-c3ccccc32)CC1 [Compound 33]
II = O=c1n(CCCN2CCCCC2)c2ccccc2n1C1CCN(C(=S)NCC(c2ccccc2)c2ccccc2)CC1 [Compound 118]
III = O=c1n(CCCN2CCCCC2)c2ccccc2n1C1CCN(C(=S)Nc2ccccc2-c2ccccc2)CC1 [Compound 161]
Ranking field: inhibition at 1 µM; order: falling. Write the labels in rank order as requested. II, III, I
(II: 21%, III: 2%, I: 0%)
